Listing: composite z-score of selected compounds
# assaySystem: E3 ubiquitin-protein ligase XIAP (Homo sapiens)
# measurementDescription: XIAP binders, primary screen, biophysical, small-molecule microarray, fluorescence 635 nm (AID 1181);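 note: score merges 667 nm emission and signal to noise over triplicate slides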
# conditionNotes: small-molecule microarray binding, higher = more signal
reportedMetric: composite z-score

1. COc1ccc([Si](C)(C)[C@@H]2[C@@H](CCO)O[C@]3(C(=O)N(Cc4ccc(NC(=O)[C@H](C)O)cc4)c4ccccc43)[C@H]2C)cc1 ... -0.0497
2. O=C(NCC(O)CO)[C@]1(Cc2ccccc2)N=C(c2ccc(OCCCO)cc2)O[C@@H]1c1ccccc1 (some centres not stated) ... 0.0251
3. CCOC(=O)C[C@H]1[C@H](OC(=O)c2cc3ccccc3oc2=O)[C@@H](NC(=O)c2ccc3ccccc3c2)c2cc(OCCCO)ccc2N1C(=O)c1ccc2ccccc2n1 ... -0.0454
4. COC(=O)Cn1c(C(=O)N2CCCC2)cc2c1C[C@H]1CN(C(=O)c3ccccc3)[C@@](Cc3ccc(OC)cc3)(C(=O)OC)[C@@H]21 ... 0.311
5. C=C(COC)/C(=C/C[C@H](OC(C)=O)c1ccc(OCCO)cc1)c1cnc2ccccc2c1 ... -0.102
6. C=CCN1C(=O)[C@@]2(Cc3ccccc3)N=C(c3ccc(OCCCO)cc3)O[C@H]2c2ccccc21 ... 0.212
7. CN1C(=O)C2C=CC(C(O)C3CC=CCC3)N(Nc3ccccc3)C2C1=O (configuration not stated) ... 0.301

====

# measurementDescription: PSAC antagonists in infected red cells, primary screen, cell-based, P. falciparum Indochina, OD700, 18 h (AID 1157)
# conditionNotes: P. falciparum Indochina infected erythrocytes, osmotic lysis OD700, 18 h; higher = more signal, called active from +8 up or from −8 down
Lab note: anything with z-score at or over 0.4 counts as class 1; the rest go in class 0.

1) Cc1ccc(N2C(=O)c3ccccc3[C@](C)(C(=O)NCC(C)C)[C@@H]2c2ccc(CO)cc2)nc1 ... class 1
2) Cc1ccc(S[C@]2(C(=O)NCCCN(C)C)CC(=O)N(C3CCCCC3)[C@@H]2c2ccc(CO)cc2I)cc1 ... class 0
3) COc1ccc(NN2C(C(O)c3cc(OC)c(OC)c(OC)c3)C=CC3C(=O)N(C4CCCCC4)C(=O)C32)cc1 (configuration not stated) ... class 1
4) CO[C@@H]1COC(=O)[C@@H]2CCCN2C(=O)CC=C[C@@H](C)[C@H](OC)COC(=O)[C@@H]2CCCN2C(=O)CC=C[C@H]1C ... class 0
5) CCCNC(=O)[C@@H]1c2ccccc2C(=O)N(C2CCCCC2)[C@H]1c1ccc(CO)cc1 ... class 1
6) O=C1O[C@@H](c2ccccc2)[C@@H](c2ccccc2)N2[C@@H](c3ccccc3OCCO)[C@]3(C(=O)Nc4ccc(C#CC5=CCCCC5)cc43)[C@@H](C(=O)O)[C@H]12 ... class 0

====

Listing: composite z-score of selected compounds
# measurementDescription: small-molecule binders of probe aInhba, primary screen, biochemical, small-molecule microarray, 635/667 nm fluorescence (AID 1148);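 note: score merges 667nm spot fluorescence with signal-to-noise for antibody binding to printed compounds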
# conditionNotes: higher = more signal
reportedMetric: composite z-score

1. CCC#CCN(Cc1ccccc1Br)[C@H](/C=C/c1ccccc1)[C@@H](O)Cc1ccccc1 ... -0.179
2. C=CCC(OC(C)=O)[C@@H]1[C@@H](N(Cc2ccc(-c3cccc(C(F)(F)F)c3)o2)C(=O)Cc2ccc(F)cc2)c2cc(OCCCO)ccc2N1C(=O)c1ccc(-c2ccccc2)cc1 (some centres not stated) ... -0.157
3. COC(=O)C[C@H]1O[C@]2(C(=O)N(C)c3ccccc32)[C@@H](C)[C@@H]1[Si](C)(C)c1ccc(OC)cc1 ... 0.138
4. CCOC(=O)C[C@H]1[C@H](OC(=O)c2ccccc2-c2ccccc2)[C@@H](NC(=O)C2CCCCC2)c2cc(OCCCO)ccc2N1C(=O)c1ccccc1 ... 0.0131
5. O=C1OCCC/C=C\[C@H]2OC34C=CCN(CCN5CCOCC5)C(=O)[C@H]3N(CCCCCO)C(=O)[C@@H]4C12 (some centres not stated) ... 0.202
6. C=CC[C@]1(C(=O)N2CCCCC2)N=C(c2ccc(OCCCO)cc2)O[C@H]1c1ccccc1N=[N+]=[N-] ... 0.0355
7. O=C1C2C=CC(C(O)C(c3ccccc3)c3ccccc3)N(Nc3ccc([N+](=O)[O-])cc3)C2C(=O)N1c1ccccc1 (configuration not stated) ... 0.0183

====

Listing: z-score of selected compounds
# measurementDescription: PSAC antagonists in infected red cells, primary screen, cell-based, P. falciparum Indochina, OD700, 1 h (AID 1154)
# conditionNotes: P. falciparum Indochina infected RBC osmotic lysis, higher = more signal, called active from +8 up or from −8 down
reportedMetric: z-score

1) C=CCN1C(=O)[C@]2(O[C@H](CCn3cc(CCO)nn3)[C@@H]([Si](C)(C)c3ccc(OC)cc3)[C@@H]2C)c2cc(NC(=O)c3ccc(OC)cc3)ccc21 ... 11.3
2) CN(C)C(=O)[C@@]1(Cc2ccccc2N=[N+]=[N-])N=C(c2ccc(OCCCO)cc2)O[C@H]1c1ccccc1CN=[N+]=[N-] ... 17.8
3) CCC(=O)[C@]12O[C@@]3([C@@H]4C(=O)OCC[C@@H]41)N(CC)C(C)=C(C(=O)OC)[C@@H](c1ccccc1)N3C2=O ... 0.91

====

# measurementDescription: Plasmodium falciparum growth inhibition, primary screen, strain 3D7, DAPI fluorescence, 100 nL (AID 1184);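 note: parasites grown inside human red blood cells in medium with human serum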
# conditionNotes: P. falciparum 3D7 growth, 3 d, higher = more signal
Category scheme (z-score): A: < -2; B: ≥ -2 and < -0.5; C: ≥ -0.5

1. O=C1c2ccccc2[C@@]2(Cc3ccccc3N(CC(F)(F)F)C2=O)[C@H](c2ccc(CO)cc2)N1C1CCCCC1 ... C
2. O=C(NCc1ccccc1)c1ccc(Br)cc1[N+](=O)[O-] ... C
3. C/C(=N\O)C(=O)NCCCCCNC(=O)OCc1ccccc1 ... C
4. C=CCN1C(=O)[C@]2(O[C@H](CCn3cc(CCO)nn3)[C@@H]([Si](C)(C)c3ccc(OC)cc3)[C@@H]2C)c2cc(NC(=O)c3ccc(OC)cc3)ccc21 ... A
5. C=C(COC)/C(=C/C[C@@H](OC(C)=O)c1cccc(OCCO)c1)c1cc(C(=O)OC)ccc1OC ... A
6. CCC(=O)[C@]12O[C@@]3([C@@H]4C(=O)OCC[C@@H]41)N(CC)C(C)=C(C(=O)OC)[C@@H](c1ccccc1)N3C2=O ... B
7. O=C1c2ccccc2[C@](Cc2ccccc2I)(C(=O)NCC(F)(F)F)[C@H](c2ccc(CO)cc2)N1Cc1ccccc1C(F)(F)F ... C
8. CC/C=C/C(=O)N(C[C@@H]1CCCO1)[C@@H]1CC(C(=O)NCCO)=C[C@H](Oc2c(I)cc(CO)cc2OC)[C@H]1O ... B
9. C=CC[C@]1(C(=O)OC)N=C(c2ccc(OCCCO)cc2)O[C@H]1c1ccccc1CN=[N+]=[N-] ... A
10. C=CCNC(=O)[C@H]1[C@@H]2C(=O)O[C@@H](c3ccccc3)[C@@H](c3ccccc3)N2[C@@H](c2ccccc2OCCO)[C@]12C(=O)N(C(=O)OCCOC)c1ccc(C#CCNC(N)=O)cc12 ... B
11. CC1=C([C@H](O)CCc2ccccc2)[C@H](CO)[C@@H]2C(=O)N(Cc3ccccc3)C(=O)[C@@H]2C1 ... B
12. Cc1ccc(S[C@]2(C(=O)NC(C)C)CC(=O)N(C3Cc4ccccc4C3)[C@@H]2c2ccc(CO)cc2)cc1 ... B
13. COc1cc(Cc2cc3c(c(CCc4ccccc4)n2)[Si](C(C)C)(C(C)C)OC3)cc(OC)c1OC ... A
14. NC(=O)NCC#Cc1ccc2c(c1)[C@]1(C(=O)N2)[C@H](c2ccccc2OCCO)N2[C@H](c3ccccc3)[C@H](c3ccccc3)OC(=O)[C@H]2[C@@H]1C(=O)N1CCN(c2ncccn2)CC1 ... A

====

# measurementDescription: adipocyte viability effects, profiling panel, cell-based, 3T3-L1 adipocytes, calcein-AM fluorescence, 48 h, basal (AID 1163); note: test concentration not given here
# conditionNotes: 3T3-L1 adipocytes viability, higher = more signal
reportedMetric: z-score

1) COc1ccc(-c2ccccc2[C@@H]2N[C@H](C(=O)O)CC[C@H]2C)cc1 ... 1.63
2) Cc1ccc(S(=O)(=O)c2cc3oc2CC[C@@H](CO)NC(=O)N(C)Cc2cn(nn2)C[C@H](Cc2ccccc2)NC3=O)cc1 ... -0.129
3) Cc1ccc(S(=O)(=O)N[C@H]2COC(=O)CC=C[C@H](C)COC(=O)N[C@@H](C)C(=O)CC=C[C@@H]2C)cc1 ... 0.538
4) COCCOC(=O)N1C(=O)[C@@]2(c3cc(C#CCNC(N)=O)ccc31)[C@H](c1ccccc1OCCO)N1[C@H](c3ccccc3)[C@H](c3ccccc3)OC(=O)[C@H]1[C@@H]2C(=O)NC[C@H](O)c1ccccc1 ... -0.574
5) C[C@]1(C(=O)NCCN2CCOCC2)c2ccccc2C(=O)N(Cc2ccccc2)[C@H]1c1ccc(CO)cc1 ... -0.337
6) C=CCNC(=O)[C@H]1[C@@H]2C(=O)O[C@@H](c3ccccc3)[C@@H](c3ccccc3)N2[C@@H](c2ccccc2OCCO)[C@]12C(=O)N(C(=O)OCCOC)c1ccc(C#CCC(C(=O)OC)C(=O)OC)cc12 ... 2.2
7) Cc1ccc(S[C@]2(C(=O)NC(C)C)CC(=O)N(Cc3cc(C(F)(F)F)cc(C(F)(F)F)c3)[C@@H]2c2ccc(CO)cc2I)cc1 ... -0.477
8) CO[C@H]1COC(=O)CC=C[C@H](C)COC(=O)[C@@H](OCc2ccccc2)C=C[C@@H]1C ... -0.886
9) CC(C)(C)OC(=O)CC[C@]1(C(=O)NCCN2CCOCC2)N=C(c2ccc(OCCCO)cc2)O[C@H]1c1ccccc1CN=[N+]=[N-] ... 1.13
10) NC(=O)[C@H]1[C@@H]2C(=O)O[C@@H](c3ccccc3)[C@@H](c3ccccc3)N2[C@@H](c2ccc(O)cc2)[C@]12C(=O)Nc1ccc(C#CCCO)cc12 ... -0.0912
11) COCCOC(=O)N1C(=O)[C@@]2(c3cc(C#CC4=CCCCC4)ccc31)[C@H](c1ccc(O)cc1)N1[C@H](c3ccccc3)[C@H](c3ccccc3)OC(=O)[C@H]1[C@@H]2C(=O)N1CCCCCCC1 ... 1.06
12) CCCC=C(CCC)[C@@H](NS(=O)(=O)c1ccc(C(F)(F)F)cc1)c1ccc(-c2ccccc2)cc1 ... -0.988
13) C=CCN1C(=O)[C@]2(O[C@H](CCn3cc(CCO)nn3)[C@@H]([Si](C)(C)c3ccc(OC)cc3)[C@@H]2C)c2cc(NC(=O)c3ccc(OC)cc3)ccc21 ... 0.727
14) C[C@H]1COC(=O)[C@H](Cc2ccccc2)NC(=O)[C@@H](C)COC(=O)[C@H](Cc2ccccc2)NC1=O ... 1.27
15) [N-]=[N+]=NCc1ccccc1C[C@]1(C(=O)N2CCCCC2)N=C(c2ccc(OCCCO)cc2)O[C@H]1c1ccccc1CN=[N+]=[N-] ... 0.628
16) CCc1cccc(NC(=O)O[C@H]2[C@H](OC(=O)Nc3ccccc3)[C@@H](OC(=O)Nc3ccccc3)[C@@H](OC)O[C@@H]2CO)c1 ... 1.1
17) C[C@H]1COC(=O)[C@@H]2CCCN2C(=O)[C@@H](C)COC(=O)[C@@H]2CCCN2C1=O ... 0.442
18) CCCC[C@@H]1C[C@H]1[C@@H](NC(=O)c1cccs1)c1ccc(Cl)cc1 ... 1.11
19) O=C1C2C=CC(C(O)c3ccccc3)N(n3cnnc3)C2C(=O)N1Cc1ccccc1 (stereo not drawn) ... -0.0533
20) COc1cc(Cc2cc3c(c(CCc4ccccc4)n2)[Si](C(C)C)(C(C)C)OC3)cc(OC)c1OC ... -1.22
21) CC(=O)Nc1ccc([C@H]2[C@H](C)CC[C@H]3C(=O)N4[C@@H](CC[C@@H](C)[C@@H]4c4ccc(NC(C)=O)cc4)C(=O)N32)cc1 ... 1.1
22) C=C(COC)/C(=C/C[C@@H](OC(=O)c1ccncc1)c1ccc(OCCO)cc1)c1cc(C(=O)OC)ccc1OC ... 1.51
23) C=CCN1C(=O)[C@@]2(Cc3ccccc3)N=C(c3ccc(OCCCO)cc3)O[C@H]2c2ccccc21 ... 1.56
24) CN1C2C=C(c3ccc(CO)cc3)C(C3C(=O)N(C(N)=O)C(=O)C32)C1c1cccs1 (stereo not drawn) ... 1.64
25) CCC(=O)[C@]12O[C@@]3([C@@H]4C(=O)OCC[C@@H]41)N(Cc1ccccc1)C(C)=C(C(=O)OC)[C@@H](c1ccccc1)N3C2=O ... 0.873
26) C=CC[C@]1(C(=O)OC)N=C(c2ccc(OCCCO)cc2)O[C@H]1c1ccccc1CN=[N+]=[N-] ... 1.51
27) O=C1O[C@H](c2ccccc2)[C@H](c2ccccc2)N2[C@H]1[C@@H](C(=O)Nc1nc3ccccc3s1)[C@]1(C(=O)Nc3ccc(C#CC4(O)CCCCCC4)cc31)[C@H]2c1ccc(O)cc1 ... 0.6
28) COC(=O)[C@@]1(Cc2ccccc2N=[N+]=[N-])N=C(c2ccc(OCCCO)cc2)O[C@H]1c1ccccc1CN=[N+]=[N-] ... 0.128
